- Test system: Syk catalytic domain (aa 356-635 with a C-terminal His-tag) (Homo sapiens, UniProt P43405)
- Construct: His-tag (C); made in house
- Assay name: In vitro Syk kinase activity measured by trFRET, Syk catalytic domain
- Assay type: biochemical
- Run parameters: Syk catalytic domain (aa 356-635), trFRET, 0.001 mM ATP
Experimental endpoint: IC50

COc1ccc2c(c1)c(-c1cc3c(ncc4nccn43)[nH]1)cn2C	100 to 1000 nM
Cn1ncc2cnc3[nH]c(-c4cccc(CNC(=O)CCN5CCOCC5)c4)cc3c21	100 to 1000 nM
Cn1cc(-c2cc3c(ncc4cnn(C)c43)[nH]2)c2ccccc21	< 100 nM
CNC(=O)Cc1cccc(-c2cc3c(ncc4cnn(C)c43)[nH]2)c1	100 to 1000 nM
COc1ccc2c(c1)c(-c1cc3c(ncc4cnc(CC(F)(F)F)n43)[nH]1)cn2C	< 100 nM
CC(C)(O)c1ccc(-c2ncn3c2cnc2[nH]cc(CO)c23)cc1	100 to 1000 nM
COC(=O)Cn1cc(-c2nc(C)n3c2cnc2[nH]ccc23)cn1	100 to 1000 nM
CN(C)CCOc1ccc(-c2cc3c(ncc4cnn(C)c43)[nH]2)cc1	100 to 1000 nM
CC(C)(O)c1ccc(-c2nc([C@@H]3CCCN(C(=O)C4(C#N)CC4)C3)n3c2cnc2[nH]ccc23)cc1	100 to 1000 nM
Cn1ncc2cnc3[nH]c(-c4cccn4CC(=O)N4CCOCC4)cc3c21	1000 to 10000 nM
COc1ccc(-c2nnn3c2cnc2[nH]ccc23)cc1	100 to 1000 nM
